Measured LTKB_BD DILI severity score accompanies every entry in the list below.
# System: Hepatotoxicity
# CONDITIONS: Liver
No unit in the answer, only the number.

# COMPOUND, LTKB_BD DILI severity score
records = [
    ("CC(C)(C)NC(=O)[C@@H]1C[C@@H]2CCCC[C@@H]2CN1C[C@@H](O)[C@H](Cc1ccccc1)NC(=O)[C@H](CC(N)=O)NC(=O)c1ccc2ccccc2n1", 3),
    ("O=C1NC(=O)C(c2ccccc2)(c2ccccc2)N1 [PHENYTOIN]", 3),
]

Q) Param item = Clc1cccc(Cl)c1N=C1NCCN1 [CLONIDINE] ; retrieve measured LTKB_BD DILI severity score.
A) 3

Q) Fill in: LTKB_BD DILI severity score of Cn1cnc([N+](=O)[O-])c1Sc1ncnc2nc[nH]c12 [AZATHIOPRINE] is ___
A) 3

----------
# Tested on: Hepatotoxicity
# EXPERIMENT_NOTES: FDA Liver Toxicity Knowledge Base Benchmark Dataset (LTKB-BD) drugs of most concern for DILI
# CONDITIONS: Liver
Below is a list of entries, each paired with its recorded LTKB_BD DILI severity score value.
Answer with the value's number alone.

Guide cases for LTKB_BD DILI severity score, answers given:
# MOLECULE, OBSERVED_VALUE
data = [
    ("O=C1CN(/N=C/c2ccc([N+](=O)[O-])o2)C(=O)N1", 8),
    ("Nc1ccn([C@H]2CC[C@@H](CO)O2)c(=O)n1", 8),
    ("CCCc1cc(=O)[nH]c(=S)[nH]1", 8),
    ("CC1=NN(c2ccc(C)c(C)c2)C(=O)/C1=N\\Nc1cccc(-c2cccc(C(=O)O)c2)c1O", 6),
    ("OC(Cn1cncn1)(Cn1cncn1)c1ccc(F)cc1F", 8),
    ("Nc1ccn([C@@H]2O[C@H](CO)[C@@H](O)[C@@H]2O)c(=O)n1", 3),
]

Now, please, on to the next molecule.
Q) Form field: reported LTKB_BD DILI severity score of `Nc1c2c(nc3ccccc13)CCCC2`
A) 7

----------
Let's go through some LTKB_BD DILI severity score measurements on Hepatotoxicity together.
// no unit string in output, number only

These recorded examples may help you get a feel for the data.
# COMPOUND, LTKB_BD DILI severity score
data = [
    ("CCN(CC)CCCC(C)Nc1ccnc2cc(Cl)ccc12 (stereo unspecified)", 3),
    ("CN(C)[C@@H]1C(O)=C(C(N)=O)C(=O)[C@@]2(O)C(O)=C3C(=O)c4c(O)cccc4[C@@](C)(O)[C@H]3[C@H](O)[C@@H]12", 2),
    ("COc1ccc2c(c1)c(CC(=O)O)c(C)n2C(=O)c1ccc(Cl)cc1", 3),
    ("C=C(CC)C(=O)c1ccc(OCC(=O)O)c(Cl)c1Cl", 5),
    ("C=CC[C@@H]1/C=C(\\C)C[C@H](C)C[C@H](OC)[C@H]2O[C@@](O)(C(=O)C(=O)N3CCCC[C@H]3C(=O)O[C@H](/C(C)=C/[C@@H]3CC[C@@H](O)[C@H](OC)C3)[C@H](C)[C@@H](O)CC1=O)[C@H](C)C[C@@H]2OC [TACROLIMUS ANHYDROUS]", 5),
]

Q) Given the entry CNCCC(Oc1ccc(C(F)(F)F)cc1)c1ccccc1 (stereo unspecified) , report its measured LTKB_BD DILI severity score.
A) 3

Q) Would you kindly share the measured LTKB_BD DILI severity score for CC(C)NCC(O)COc1ccc(COCCOC(C)C)cc1 (stereo unspecified) ?
A) 3

Q) Which LTKB_BD DILI severity score value belongs to `C[C@]12CC[C@@H]3c4ccc(O)cc4CC[C@H]3[C@@H]1CC[C@@H]2O` ?
A) 2

Q) Record request: LTKB_BD DILI severity score value, item `O=C1CC2(CCCC2)CC(=O)N1CCCCN1CCN(c2ncccn2)CC1`
A) 3

Q) Would you mind telling me what LTKB_BD DILI severity score value was observed for CC(NC(C)(C)C)C(=O)c1cccc(Cl)c1 (stereo unspecified) ?
A) 5

Q) Consider the compound shown here: `Nc1nc(O)c2ncn(COC(CO)CO)c2n1` What is its recorded LTKB_BD DILI severity score?
A) 7
